system: T1, PACAP-R3 (human, UniProt P41587 24-438)
T1 sequence (looked up): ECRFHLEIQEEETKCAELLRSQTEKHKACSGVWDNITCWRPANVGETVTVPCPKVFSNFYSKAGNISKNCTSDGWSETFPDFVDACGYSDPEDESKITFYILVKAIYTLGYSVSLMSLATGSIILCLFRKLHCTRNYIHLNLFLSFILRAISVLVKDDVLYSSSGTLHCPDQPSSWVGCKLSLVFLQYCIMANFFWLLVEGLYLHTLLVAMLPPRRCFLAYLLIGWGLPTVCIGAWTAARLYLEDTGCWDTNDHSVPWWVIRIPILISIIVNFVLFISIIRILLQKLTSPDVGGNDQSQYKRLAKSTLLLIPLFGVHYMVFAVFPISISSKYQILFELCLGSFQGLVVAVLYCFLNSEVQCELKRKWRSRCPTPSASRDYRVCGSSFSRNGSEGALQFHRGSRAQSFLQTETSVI
assay_name: cell-based or functional assay
Let's look at some binders and their measured R3 EC50.
Give your result in nM as a bare value.

binder: HSDAVFTDNYTRLRKQMAAKKYLNSIKNKN [R3P163]
experimental_readout: R3 EC50
measured_number: 0.2
--
binder: HSDAVFTDNYTRLRKQMAAKKYLNSIKNRR [R3P146]
experimental_readout: R3 EC50
measured_number: 0.3
--
binder: HSDAVFTDNYTRLRKQMAIKKYLNSIKNKR [R3P102]
experimental_readout: R3 EC50
measured_number: 60

Query :: Name the reported R3 EC50 value associated with the binder HSDAVFTDNYTRLRKQMAWKKYLNSIKNKR [R3P113]
Result :: 0.3

Query :: Name the reported R3 EC50 value associated with the binder HSDAVFTDNYTRLRKQMAAKKYLNSIKNPR [R3P144]
Result :: 3

Query :: Name the reported R3 EC50 value associated with the binder HSDAVFTDNYTRLRKQMAYKKYLNSIKNKR [R3P114]
Result :: 2

Query :: Name the reported R3 EC50 value associated with the binder HSDAVFTDNYTRLRKQMALKKYLNSIKNKR [R3P104]
Result :: 0.2

Query :: Name the reported R3 EC50 value associated with the binder HSDAVFTDNYTRLRKQMAAKKYLNSIKNHR [R3P139]
Result :: 0.4

Query :: Name the reported R3 EC50 value associated with the binder HSDAVFTDNYTRLRKQMAAKKYLNSIVNKR [R3P130]
Result :: 1

Query :: Name the reported R3 EC50 value associated with the binder HSDAVFTDNYTRLRKQMAAKKYLNSIKNNR [R3P143]
Result :: 0.2

Query :: Name the reported R3 EC50 value associated with the binder HSDAVFTDNYTRLRKQMAQKKYLNSIKNKR [R3P108]
Result :: 300

Query :: Name the reported R3 EC50 value associated with the binder HSDAVFTDNYTRLRKQMAAKKYLNSIKNKE [R3P155]
Result :: 0.4

Query :: Name the reported R3 EC50 value associated with the binder HSDAVFTDNYTRLRKQMAAKKYLNSIWNKR [R3P131]
Result :: 0.3

Query :: Name the reported R3 EC50 value associated with the binder HSDAVFTDNYTRLRKQMAAKKYLNSIKNCR [R3P134]
Result :: 0.4

Query :: Name the reported R3 EC50 value associated with the binder HSDAVFTDNYTRLRKQMAHKKYLNSIKNKR [R3P101]
Result :: 1

Query :: Name the reported R3 EC50 value associated with the binder HSDAVFTDNYTRLRKQMAAKKYLNSIHNKR [R3P121]
Result :: 1

Query :: Name the reported R3 EC50 value associated with the binder HSDAVFTDNYTRLRKQMAAKKYLNSIKNWR [R3P150]
Result :: 0.8

Query :: Name the reported R3 EC50 value associated with the binder HSDAVFTDNYTRLRKQMAKKKYLNSIKNKR [R3P103]
Result :: 0.05

Query :: Name the reported R3 EC50 value associated with the binder HSDAVFTDNYTRLRKQMASKKYLNSIKNKR [R3P110]
Result :: 0.5

Query :: Name the reported R3 EC50 value associated with the binder HSDAVFTDNYTRLRKQMAAKKYLNSIINKR [R3P122]
Result :: 0.2
